Taken from ChEMBL document CHEMBL1146974.

molecular target: Voltage-gated inwardly rectifying potassium channel KCNH2 (Homo sapiens)
Sequence (Q12809 whole entry): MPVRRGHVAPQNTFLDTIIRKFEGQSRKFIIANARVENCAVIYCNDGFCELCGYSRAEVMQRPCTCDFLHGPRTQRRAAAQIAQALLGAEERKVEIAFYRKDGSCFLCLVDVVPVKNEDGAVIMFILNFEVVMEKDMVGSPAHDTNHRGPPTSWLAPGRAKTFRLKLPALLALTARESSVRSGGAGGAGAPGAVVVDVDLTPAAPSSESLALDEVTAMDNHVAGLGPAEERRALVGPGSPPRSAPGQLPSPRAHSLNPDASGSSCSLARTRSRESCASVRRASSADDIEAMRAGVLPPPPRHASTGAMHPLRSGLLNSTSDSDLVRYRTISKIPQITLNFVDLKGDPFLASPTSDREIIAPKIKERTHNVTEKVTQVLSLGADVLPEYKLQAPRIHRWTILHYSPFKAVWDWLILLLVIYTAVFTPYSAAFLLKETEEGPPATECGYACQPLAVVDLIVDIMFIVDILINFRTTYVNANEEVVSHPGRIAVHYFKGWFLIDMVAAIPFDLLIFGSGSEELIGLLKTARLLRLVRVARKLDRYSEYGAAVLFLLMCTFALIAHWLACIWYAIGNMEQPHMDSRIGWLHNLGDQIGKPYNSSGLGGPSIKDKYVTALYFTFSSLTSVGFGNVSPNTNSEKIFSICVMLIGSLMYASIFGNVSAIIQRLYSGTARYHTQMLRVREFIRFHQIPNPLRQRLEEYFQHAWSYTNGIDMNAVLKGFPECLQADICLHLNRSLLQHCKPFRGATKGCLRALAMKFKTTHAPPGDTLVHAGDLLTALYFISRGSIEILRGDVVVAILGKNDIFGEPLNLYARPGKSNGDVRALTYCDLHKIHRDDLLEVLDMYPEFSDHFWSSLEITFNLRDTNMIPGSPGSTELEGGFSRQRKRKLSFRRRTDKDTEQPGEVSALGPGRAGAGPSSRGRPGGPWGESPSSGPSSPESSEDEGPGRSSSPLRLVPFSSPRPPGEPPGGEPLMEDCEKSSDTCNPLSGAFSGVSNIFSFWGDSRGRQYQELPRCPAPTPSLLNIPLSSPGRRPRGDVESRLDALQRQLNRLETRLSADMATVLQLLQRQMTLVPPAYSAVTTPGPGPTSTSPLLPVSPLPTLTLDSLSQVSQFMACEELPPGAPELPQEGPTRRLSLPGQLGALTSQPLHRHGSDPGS
result.type: pKi
Please report pKi as the negative decimal logarithm of the molar concentration, giving only the number.

Provide pKi, tested on Voltage-gated inwardly rectifying potassium channel KCNH2 (Homo sapiens), for COc1ccc(Br)cc1CCc1c(Cl)cccc1C1=NCCN1 .
6.08

###

target: Melanocortin receptor 4 (Homo sapiens); assay: Antagonist activity against MC4R by cAMP functional assay
result.type: pIC50
Please report pIC50 as the negative decimal logarithm of the molar concentration, giving only the number.

COc1ccc(Br)cc1CCc1c(F)cccc1C(=O)/N=C(\N)NCCCCN1CCc2ccccc2C1 :: 6.19
CCN(CC)CCCC(C)/N=C(\NC(=O)c1cccc(F)c1CCc1cc(Br)ccc1OC)NC(C)C (stereo not drawn) :: 4.77
COc1ccc(Br)cc1CCc1c(F)cccc1C(=O)/N=C(\N)NCCCCN1CCCCC1 :: 7.15
CCN(CC)CCCC(C)N=C(N)NC(=O)c1cccc(F)c1CCc1ccc2ccccc2c1 (stereo not drawn) :: 5.74
CCN(CC)CCCC(C)/N=C(/N)NC(=O)c1cccc(F)c1CCc1cc(Br)ccc1OC (stereo not drawn) :: 6.89

Look up and state reported pIC50 for COc1ccc(Br)cc1CCc1c(F)cccc1C(=O)/N=C(\N)NCC(C)C
5.07

Look up and state reported pIC50 for COc1ccc(Br)cc1CCc1c(F)cccc1C(=O)/N=C(\N)NCCCN1CCCCC1
6.48

###

assay: Oral bioavailability in rat; format: ADME, organism-based; conditions: in vivo
bioavailability values for the compounds below.
Number in %, nothing else.

Look up and state reported bioavailability for COc1ccc(Br)cc1CCc1c(F)cccc1C(=O)/N=C(\N)NCCCN1CCCCC1
6.3

Look up and state reported bioavailability for COc1ccc(Br)cc1CCc1c(F)cccc1C1=NCCN1
4.6

###

target: UniProt P32245; assay: Antagonist activity against MC4R by cAMP functional assay
IC50 values for the compounds below.
Number in nM, nothing else.

Look up and state reported IC50 for COc1ccc(Br)cc1CCc1c(F)cccc1C(=O)/N=C(\N)NCCCCN(C)Cc1ccccc1
180

Look up and state reported IC50 for COc1ccc(Br)cc1CCc1c(F)cccc1C(=O)/N=C(\N)NCCCCN1CCC2CCCCC2C1 (stereo not given)
390

Look up and state reported IC50 for COc1ccc(Br)cc1CCc1c(Cl)cccc1C(=O)N=C(N)N
2580

###

target: Melanocortin receptor 4 (Homo sapiens, UniProt P32245)
Sequence (P32245 whole entry): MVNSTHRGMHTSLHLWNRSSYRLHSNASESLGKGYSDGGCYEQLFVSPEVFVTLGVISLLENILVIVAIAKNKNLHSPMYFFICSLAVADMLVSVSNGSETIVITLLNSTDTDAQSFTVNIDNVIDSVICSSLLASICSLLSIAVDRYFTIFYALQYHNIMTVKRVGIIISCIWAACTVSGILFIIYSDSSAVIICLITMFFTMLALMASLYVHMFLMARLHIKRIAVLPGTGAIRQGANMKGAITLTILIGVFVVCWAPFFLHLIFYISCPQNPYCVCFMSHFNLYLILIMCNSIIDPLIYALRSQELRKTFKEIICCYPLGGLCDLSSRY
I'd appreciate it if you marked entries rule met when Ki is lower than 10 nM and rule not met when it is not.

CCN(CC)CCCC(C)/N=C(/NC)NC(=O)c1cccc(F)c1CCc1cc(Br)ccc1OC (configuration not stated) :: rule not met

For COc1ccc(Br)cc1CCc1c(F)cccc1C(=O)/N=C(\N)NCCCCN1CCCCC1 , is the recorded Ki below the cut-off of 10 nM?
rule met

For COc1ccc(Br)cc1CCc1c(F)cccc1C(=O)NC(N)=NCCCN1CCN(C)CC1 , is the recorded Ki below the cut-off of 10 nM?
rule not met

For COc1ccc(Br)cc1CCc1c(F)cccc1C(=O)/N=C(\N)NCCCCN(C)Cc1ccccc1 , is the recorded Ki below the cut-off of 10 nM?
rule met

For CCN(CC)CCCC(C)N=C(N)NC(=O)c1cccc(F)c1CCc1cc(OC)cc(OC)c1 (configuration not stated) , is the recorded Ki below the cut-off of 10 nM?
rule not met

For CCN(CC)CCCC(C)/N=C(/N)NC(=O)c1cccc(F)c1CCc1cc(Br)ccc1OC (configuration not stated) , is the recorded Ki below the cut-off of 10 nM?
rule met

For COc1ccc(Br)cc1CCc1c(F)cccc1C(=O)/N=C(\N)NCCCCN1CCC2CCCCC2C1 (configuration not stated) , is the recorded Ki below the cut-off of 10 nM?
rule not met

For CCCCN=C(N)NC(=O)c1cccc(F)c1CCc1cc(Br)ccc1OC , is the recorded Ki below the cut-off of 10 nM?
rule not met

For COc1ccc(Br)cc1CCc1c(F)cccc1C(=O)/N=C(\N)NCCCN1CCCCC1 , is the recorded Ki below the cut-off of 10 nM?
rule met

For CCN(CC)CCCC(C)N=C(N)NC(=O)c1cccc(F)c1OCc1cc(Br)ccc1OC (configuration not stated) , is the recorded Ki below the cut-off of 10 nM?
rule not met

For CCN(CC)CCCC(C)/N=C(/N)NC(=O)c1cccc(F)c1CCc1cccc2ccccc12 (configuration not stated) , is the recorded Ki below the cut-off of 10 nM?
rule not met

For COc1ccc(Br)cc1CCc1c(F)cccc1C(=O)NC(N)=NCC1CCNCC1 , is the recorded Ki below the cut-off of 10 nM?
rule not met
